target: WIZ protein (HiBit-WIZ fusion protein) (Homo sapiens, UniProt O95785+Q96SW2); construct: expressed in transfected cells; test: Quantification of WIZ protein levels in HiBit tag fusion protein assay (WIZ HiBit assay in 293T cells); assay type: cell-based; parameters: dose or concentration left out as unconfirmed; conditions: HEK-293T, read-out: WIZ Amax
Sequence (O95785 whole entry, the tested form may be a part): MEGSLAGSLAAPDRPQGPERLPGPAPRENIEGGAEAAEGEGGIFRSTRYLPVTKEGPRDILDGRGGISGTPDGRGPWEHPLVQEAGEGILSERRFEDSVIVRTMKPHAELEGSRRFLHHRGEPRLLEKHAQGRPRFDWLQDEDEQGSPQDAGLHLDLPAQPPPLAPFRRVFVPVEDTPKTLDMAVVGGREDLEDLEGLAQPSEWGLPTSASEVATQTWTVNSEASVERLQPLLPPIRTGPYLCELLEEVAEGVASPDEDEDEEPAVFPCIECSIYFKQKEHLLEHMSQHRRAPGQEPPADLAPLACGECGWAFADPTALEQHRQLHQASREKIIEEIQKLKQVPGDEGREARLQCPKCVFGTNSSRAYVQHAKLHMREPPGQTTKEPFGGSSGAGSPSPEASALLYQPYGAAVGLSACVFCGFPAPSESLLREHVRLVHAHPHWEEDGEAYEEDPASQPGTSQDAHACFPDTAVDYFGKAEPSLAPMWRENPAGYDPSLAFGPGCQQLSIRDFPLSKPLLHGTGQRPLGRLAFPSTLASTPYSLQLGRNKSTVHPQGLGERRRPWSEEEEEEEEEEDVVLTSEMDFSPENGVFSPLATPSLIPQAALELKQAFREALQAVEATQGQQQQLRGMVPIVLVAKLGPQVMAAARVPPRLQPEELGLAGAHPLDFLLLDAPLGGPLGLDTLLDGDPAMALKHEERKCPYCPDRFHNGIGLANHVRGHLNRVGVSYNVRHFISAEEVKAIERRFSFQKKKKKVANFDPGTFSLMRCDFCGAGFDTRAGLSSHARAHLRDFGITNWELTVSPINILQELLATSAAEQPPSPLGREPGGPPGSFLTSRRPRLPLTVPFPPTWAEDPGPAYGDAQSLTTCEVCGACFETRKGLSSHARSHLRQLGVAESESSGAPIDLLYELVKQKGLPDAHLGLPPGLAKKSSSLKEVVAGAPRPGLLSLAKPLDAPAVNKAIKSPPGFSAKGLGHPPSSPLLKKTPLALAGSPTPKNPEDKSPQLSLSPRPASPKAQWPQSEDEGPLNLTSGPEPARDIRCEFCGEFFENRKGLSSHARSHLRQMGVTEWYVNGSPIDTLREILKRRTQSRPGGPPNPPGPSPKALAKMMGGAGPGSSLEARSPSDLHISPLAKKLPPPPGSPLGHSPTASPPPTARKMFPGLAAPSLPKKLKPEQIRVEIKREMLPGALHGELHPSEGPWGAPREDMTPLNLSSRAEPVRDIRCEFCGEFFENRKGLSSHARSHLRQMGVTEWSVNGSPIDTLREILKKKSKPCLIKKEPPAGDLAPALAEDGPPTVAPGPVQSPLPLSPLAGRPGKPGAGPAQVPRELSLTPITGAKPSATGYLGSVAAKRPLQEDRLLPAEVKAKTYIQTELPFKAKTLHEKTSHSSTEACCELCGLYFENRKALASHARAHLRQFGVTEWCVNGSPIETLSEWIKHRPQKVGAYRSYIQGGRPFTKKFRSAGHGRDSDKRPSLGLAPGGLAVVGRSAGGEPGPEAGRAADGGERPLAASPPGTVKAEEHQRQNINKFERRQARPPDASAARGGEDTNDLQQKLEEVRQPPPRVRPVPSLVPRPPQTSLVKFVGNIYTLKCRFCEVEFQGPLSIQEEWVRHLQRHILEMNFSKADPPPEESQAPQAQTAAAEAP
Sequence (Q96SW2 whole entry, the tested form may be a part): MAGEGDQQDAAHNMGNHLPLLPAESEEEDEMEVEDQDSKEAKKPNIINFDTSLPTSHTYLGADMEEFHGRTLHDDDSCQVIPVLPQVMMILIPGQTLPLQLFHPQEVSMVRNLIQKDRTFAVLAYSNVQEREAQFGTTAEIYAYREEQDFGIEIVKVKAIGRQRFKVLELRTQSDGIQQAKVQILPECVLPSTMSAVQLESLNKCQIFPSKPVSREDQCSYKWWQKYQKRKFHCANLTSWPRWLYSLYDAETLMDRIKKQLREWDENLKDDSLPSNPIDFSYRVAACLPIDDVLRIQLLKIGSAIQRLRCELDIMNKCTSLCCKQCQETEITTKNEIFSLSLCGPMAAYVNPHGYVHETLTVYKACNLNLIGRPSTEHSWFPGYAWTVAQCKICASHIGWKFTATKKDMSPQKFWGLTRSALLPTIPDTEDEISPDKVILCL
Sequence (Q16531 whole entry partner, the tested form may be a part): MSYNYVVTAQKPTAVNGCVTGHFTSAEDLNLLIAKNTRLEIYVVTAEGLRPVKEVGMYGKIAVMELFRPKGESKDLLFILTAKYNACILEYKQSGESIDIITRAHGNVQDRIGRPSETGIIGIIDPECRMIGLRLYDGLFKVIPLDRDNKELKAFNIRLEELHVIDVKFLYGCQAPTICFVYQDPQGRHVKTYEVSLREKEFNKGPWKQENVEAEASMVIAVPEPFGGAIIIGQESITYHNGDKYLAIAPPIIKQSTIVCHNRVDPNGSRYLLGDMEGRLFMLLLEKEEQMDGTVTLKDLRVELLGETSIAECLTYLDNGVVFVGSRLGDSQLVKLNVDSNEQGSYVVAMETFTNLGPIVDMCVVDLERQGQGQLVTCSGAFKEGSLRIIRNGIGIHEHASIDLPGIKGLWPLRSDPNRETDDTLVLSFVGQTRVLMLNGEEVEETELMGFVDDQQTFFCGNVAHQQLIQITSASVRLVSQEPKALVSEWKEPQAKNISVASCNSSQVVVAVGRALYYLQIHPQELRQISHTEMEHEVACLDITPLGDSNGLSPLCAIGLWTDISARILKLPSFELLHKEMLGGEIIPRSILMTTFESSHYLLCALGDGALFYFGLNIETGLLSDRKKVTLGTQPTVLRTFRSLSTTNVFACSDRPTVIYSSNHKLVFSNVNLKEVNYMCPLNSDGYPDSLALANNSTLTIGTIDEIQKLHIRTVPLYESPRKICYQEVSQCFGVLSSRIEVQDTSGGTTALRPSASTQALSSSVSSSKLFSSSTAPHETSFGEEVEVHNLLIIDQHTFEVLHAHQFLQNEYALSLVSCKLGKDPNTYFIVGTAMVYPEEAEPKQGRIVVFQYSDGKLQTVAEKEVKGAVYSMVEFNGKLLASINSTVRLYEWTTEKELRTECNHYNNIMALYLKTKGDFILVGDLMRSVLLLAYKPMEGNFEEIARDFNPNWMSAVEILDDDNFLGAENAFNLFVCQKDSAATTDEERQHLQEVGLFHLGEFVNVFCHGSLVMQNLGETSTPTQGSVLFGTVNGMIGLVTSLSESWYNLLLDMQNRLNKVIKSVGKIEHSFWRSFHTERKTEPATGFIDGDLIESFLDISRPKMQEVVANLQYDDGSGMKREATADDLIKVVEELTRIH
For each of the compounds below, state its remaining activity.
Param answer (str): number followed by unit.

Inquiry: Would you kindly share the measured remaining activity for CCN(C)C(=O)N1CC[C@@H](Cc2ccn3ncc(N4CCC(=O)NC4=O)c3c2)C[C@@H]1C ?
Reply text: 18%

Inquiry: Would you kindly share the measured remaining activity for COC(C)(C)CN1CCC(Cc2ccn3ncc(N4CCC(=O)NC4=O)c3c2)CC1 ?
Reply text: 36%

Inquiry: Would you kindly share the measured remaining activity for O=C1CCN(c2cnn3ccc(CC4CCN(S(=O)(=O)CC5CCCCC5)CC4)cc23)C(=O)N1 ?
Reply text: 12%

Inquiry: Would you kindly share the measured remaining activity for CC(C)(C1CCC(F)(F)CC1)N1CCN(Cc2ccn3ncc(N4CCC(=O)NC4=O)c3c2)CC1 ?
Reply text: 25%

Inquiry: Would you kindly share the measured remaining activity for COc1ccnc(N2CCC(Cc3ccn4ncc(N5CCC(=O)NC5=O)c4c3)CC2)n1 ?
Reply text: 65%

Inquiry: Would you kindly share the measured remaining activity for CC(C)C(=O)N1CCC(Cc2ccn3ncc(N4CCC(=O)NC4=O)c3c2)CC1 ?
Reply text: 41%

Inquiry: Would you kindly share the measured remaining activity for CC(=O)N1CCC(Cc2ccn3ncc(N4CCC(=O)NC4=O)c3c2)CC1 ?
Reply text: 38%

Inquiry: Would you kindly share the measured remaining activity for CCS(=O)(=O)N1CC[C@@H](Cc2ccn3ncc(N4CCC(=O)NC4=O)c3c2)C[C@@H]1C ?
Reply text: 19%

meta.source: patent US11787785B2
